SYSTEM_NAME: T1, PARD3B_1, Q8TEW8
T1 sequence (Q8TEW8 196-299, limits assumed, looked up): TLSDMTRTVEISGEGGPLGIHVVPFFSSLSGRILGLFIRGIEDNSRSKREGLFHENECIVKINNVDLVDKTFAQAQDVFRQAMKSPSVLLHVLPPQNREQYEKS
ASSAY_PROCEDURE: holdup assay
Set-up: key: below the threshold = too weak to quantify, mostly under pKd 3.1 to 4
CONDITION_DESCRIPTION: plain residues with an end cap or a label only (N-terminal biotin on a linker: ahx)

{"BINDER": "GYDWGPATDL [TJP3, O95049]", "pKd": 3.65}
{"BINDER": "HNAFLSVTTV [PDZRN4, Q6ZMN7]", "pKd": 3.55}
{"BINDER": "RAVEEEESRF [PSCDBP, O60759]", "pKd": 4.06}
{"BINDER": "RRRKRKRTYL [HPV49-L2, P36762]", "pKd": 3.72}
{"BINDER": "TVICWPGSLV [LNX2, Q8N448]", "pKd": 3.99}
